Assay: soluble on expression in E. coli; label from the status in PepcDB or PDB records
quantityName: soluble on expression in E. coli

MPSGGQRKHTISNKTRKRPGKDLDQIHEDLKPEKAAKLLQQEIDYDLPGNGQFYCIECERHFVDEKTRQLHRKTKLHKNRVKTLKEVPYTQAEANAAGGSGFFPAITLKTRVELPKQPEIPIPVVAET    soluble
MRAFKAHLRGLSPYPYKKEEAPVKLDQNESPFDLPGALKEEALGRLRAIPWNRYPEIHAESLRKRLSALLDWPEEGIVLAPGSNLLILALSLAAEEVLDLRPSFPHYAHAAKVAGTPYRAVPLGEGFSLDLKALLAAFRGGVLFLPNPHAPTGALFPEEALRALAERAKEVGGLLVVDEAYREFAGTDFRFLARENPHVALLRTFSKAFSLGGVRAGYLLGSPEVAGVVREVLPPFVLPAHTGAVLEVVLENPGYVEKVVEEVVAQRERVYRELLAHPTWRPYPSRTNFLLVRTPDAEEAFRHLLSQGVLVRRQDRYPGLAGCLRVTVGRREEMDAFLRAAFGVAYA    soluble
MSLDREGLNTHLKSGATTVCRAWEVRRTDGVTLGFTDHDRDLSFDGMTFRAGTGLSARSLMQSTGLAVDNSEALGALSSDAVREADIESGRYDGAEVRAWLVNWADTTERALQFRGSLGEIRRAGGAFEAELRGLTEALNQPLGRVFQKPCSAVLGDAACKFDLSTAGYAVEIDVETLRDGQLFAWASLDGFAPGWFTGGRLTVLGGAGAGLWAPIRSDSLNARREITLWQPIRADIQPGDLVRLSAGCDKRQSTCRLKFDNLVNYQGFPDIPGEDWMVAVPKRTGQNTGGSRREGHHHHHH    soluble
